System: PC-14
Protocol Details: relative viability (nuclei count vs DMSO), 5 days (fraction); higher = more cells survive
Stated Conditions: first compound 0.253 µM
Mark Y only for relative viability values smaller than 0.4; exact matches and larger values are N.

// known answers, use as guide
{"Compound": "Cc1cnc(-c2cnc(NCCNc3ccc(C#N)cn3)nc2-c2ccc(Cl)cc2Cl)[nH]1 + Nc1nc2[nH]cc(CCc3ccc(C(=O)N[C@@H](CCC(=O)O)C(=O)O)cc3)c2c(=O)[nH]1 [Pemetrexed] (partner 0.2 µM)", "Class": "Y"}
{"Compound": "O=c1[nH]c2ccccc2n1C1CCN(CCCC(c2ccc(F)cc2)c2ccc(F)cc2)CC1 [Pimozide] + N=C(N)NC(=N)NCCc1ccccc1 [Phenformin] (partner 250 µM)", "Class": "N"}
{"Compound": "O=c1[nH]c2ccccc2n1C1CCN(CCCC(c2ccc(F)cc2)c2ccc(F)cc2)CC1 [Pimozide] + CC1(C)CCC(c2ccc(Cl)cc2)=C(CN2CCN(c3ccc(C(=O)NS(=O)(=O)c4ccc(N[C@H](CCN5CCOCC5)CSc5ccccc5)c(S(=O)(=O)C(F)(F)F)c4)cc3)CC2)C1 [Navitoclax] (partner 0.5 µM)", "Class": "N"}
{"Compound": "Cc1cnc(-c2cnc(NCCNc3ccc(C#N)cn3)nc2-c2ccc(Cl)cc2Cl)[nH]1 + N=C(N)NC(=N)NCCc1ccccc1 [Phenformin] (partner 250 µM)", "Class": "N"}

Moving on to another compound below.
Inquiry: Does the reported relative viability of the following compound sit strictly below 0.4? Cc1cnc(-c2cnc(NCCNc3ccc(C#N)cn3)nc2-c2ccc(Cl)cc2Cl)[nH]1 + Nc1ncn([C@H]2C[C@H](O)[C@@H](CO)O2)c(=O)n1 [Decitabine] (partner 2 µM)
Reply text: Y

====

Tested on: NCI-H1395
Protocol Details: relative viability (nuclei count vs DMSO), 5 days (fraction); higher = more cells survive
Stated Conditions: first compound 0.253 µM
Below: a set of entries, each annotated with reported relative viability.

# annotated cases, reported relative viability shown
{"Molecule": "O=c1[nH]c2ccccc2n1C1CCN(CCCC(c2ccc(F)cc2)c2ccc(F)cc2)CC1 [Pimozide] + Nc1nc2[nH]cc(CCc3ccc(C(=O)N[C@@H](CCC(=O)O)C(=O)O)cc3)c2c(=O)[nH]1 [Pemetrexed] (partner 0.2 µM)", "relative viability": 0.825}
{"Molecule": "O=c1[nH]c2ccccc2n1C1CCN(CCCC(c2ccc(F)cc2)c2ccc(F)cc2)CC1 [Pimozide] + C[C@]1(O)C[C@@H](c2nc(-c3ccc4ccc(-c5ccccc5)nc4c3)c3c(N)nccn32)C1 [Linsitinib] (partner 1 µM)", "relative viability": 1.07}
{"Molecule": "Cc1cnc(-c2cnc(NCCNc3ccc(C#N)cn3)nc2-c2ccc(Cl)cc2Cl)[nH]1 + NC(=O)Nc1cc(-c2cccc(F)c2)sc1C(=O)N[C@H]1CCCNC1 [AZD7762] (partner 0.2 µM)", "relative viability": 0.43}

Proceeding to the next molecule to report its relative viability.
Inquiry: Query relative viability for Cc1cnc(-c2cnc(NCCNc3ccc(C#N)cn3)nc2-c2ccc(Cl)cc2Cl)[nH]1 + COc1cccc2cc(-c3nc([C@H]4CC[C@H](C(=O)O)CC4)n4ncnc(N)c34)[nH]c12 [OSI-027] (partner 0.5 µM)
Reply text: 0.525

====

Test system: ABC-1
Protocol Details: relative viability (nuclei count vs DMSO), 5 days (fraction); higher = more cells survive
Stated Conditions: first compound 0.0002 µM
Reported Endpoint: relative viability
Reply briefly: the number, and no unit.

Recorded results for 2 compounds are shown here.
{"Compound": "CC(=O)O[C@@]12CO[C@@H]1C[C@H](O)[C@@]1(C)C(=O)[C@H](O)C3=C(C)[C@@H](OC(=O)[C@H](O)[C@@H](NC(=O)OC(C)(C)C)c4ccccc4)C[C@@](O)([C@@H](OC(=O)c4ccccc4)[C@H]21)C3(C)C [Docetaxel] + Cc1nc(NC(=O)N2CCC[C@H]2C(N)=O)sc1-c1ccnc(C(C)(C)C(F)(F)F)c1 [Alpelisib] (partner 2 µM)", "relative viability": 0.826}
{"Compound": "CC(=O)O[C@@]12CO[C@@H]1C[C@H](O)[C@@]1(C)C(=O)[C@H](O)C3=C(C)[C@@H](OC(=O)[C@H](O)[C@@H](NC(=O)OC(C)(C)C)c4ccccc4)C[C@@](O)([C@@H](OC(=O)c4ccccc4)[C@H]21)C3(C)C [Docetaxel] + COc1cc2c(Oc3ccc(NC(=O)C4(C(=O)Nc5ccc(F)cc5)CC4)cc3F)ccnc2cc1OCCCN1CCOCC1 [Foretinib] (partner 0.25 µM)", "relative viability": 1.16}

Could you now look at the following compound, please?
Inquiry: Identify measured relative viability corresponding to CC(=O)O[C@@]12CO[C@@H]1C[C@H](O)[C@@]1(C)C(=O)[C@H](O)C3=C(C)[C@@H](OC(=O)[C@H](O)[C@@H](NC(=O)OC(C)(C)C)c4ccccc4)C[C@@](O)([C@@H](OC(=O)c4ccccc4)[C@H]21)C3(C)C [Docetaxel] + N=C(N)NC(=N)NCCc1ccccc1 [Phenformin] (partner 250 µM)
Reply text: 0.27
